system-tested: T1, native PRLR expressing T47D cells (Homo sapiens, UniProt P16471)
T1 construct: a native PRLR expressing cell line (T47D); endogenous in cells; host or cells: T47D
T1 sequence (P16471 25-622): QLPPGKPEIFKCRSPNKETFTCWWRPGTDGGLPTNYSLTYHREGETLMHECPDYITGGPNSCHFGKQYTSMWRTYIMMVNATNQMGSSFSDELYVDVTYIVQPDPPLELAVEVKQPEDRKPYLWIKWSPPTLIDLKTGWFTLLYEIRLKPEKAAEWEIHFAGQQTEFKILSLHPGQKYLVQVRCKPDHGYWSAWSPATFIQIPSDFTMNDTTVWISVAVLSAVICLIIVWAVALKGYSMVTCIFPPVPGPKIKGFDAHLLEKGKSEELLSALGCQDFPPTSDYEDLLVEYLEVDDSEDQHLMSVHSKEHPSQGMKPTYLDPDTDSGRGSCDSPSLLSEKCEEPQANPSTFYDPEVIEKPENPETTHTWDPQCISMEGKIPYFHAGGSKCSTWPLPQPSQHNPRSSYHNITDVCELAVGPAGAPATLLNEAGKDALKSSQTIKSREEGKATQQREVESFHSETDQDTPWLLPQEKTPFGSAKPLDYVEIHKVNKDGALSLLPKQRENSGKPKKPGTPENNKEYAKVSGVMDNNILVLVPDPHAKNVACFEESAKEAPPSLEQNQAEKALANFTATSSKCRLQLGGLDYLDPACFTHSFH
measurement-protocol: FACS cell surface binding
Consider the following molecules and their measured FACS Cell Binding readings.
Provide only the numeric value, understood in Fold Above Background.

# molecule, FACS Cell Binding, Fold Above Background
data = [
    ("H1H6975N: anti-PRLR antibody, human IgG1 Fc form of H2M6975N of Table 1; HCVR/LCVR SEQ ID NOs 370/378 (antibody, V domains shown, human IgG1 Fc) VH: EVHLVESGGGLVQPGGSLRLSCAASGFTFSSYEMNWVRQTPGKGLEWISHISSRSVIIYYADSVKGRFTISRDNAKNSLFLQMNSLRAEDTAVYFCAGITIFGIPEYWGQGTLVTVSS VL: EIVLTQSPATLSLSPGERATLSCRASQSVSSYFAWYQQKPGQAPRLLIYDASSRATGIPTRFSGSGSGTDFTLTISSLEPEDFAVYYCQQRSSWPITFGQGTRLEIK", 46),
]

# evaluate next
Exam item: Record request: FACS Cell Binding value, item H1H6958N2: anti-PRLR antibody, receptor blocking, human IgG1 Fc form of H2M6958N2 of Table 1; HCVR/LCVR SEQ ID NOs 290/298 (antibody, V domains shown) VH: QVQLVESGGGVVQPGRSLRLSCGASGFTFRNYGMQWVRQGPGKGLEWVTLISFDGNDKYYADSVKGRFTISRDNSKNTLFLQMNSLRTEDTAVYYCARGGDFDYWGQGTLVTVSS VL: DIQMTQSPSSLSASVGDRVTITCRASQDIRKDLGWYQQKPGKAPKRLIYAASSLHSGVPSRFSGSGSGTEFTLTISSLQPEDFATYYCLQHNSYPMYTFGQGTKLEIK
Marked response: 37

Where these numbers come from: patent US10925971B2
